assay.summary: Terminal plasma concentration in rat at 30 mg/kg, po administered 5 hrs post-carrageenan challenge
Format: ADME, organism-based
Design: dose 30 mg/kg, route oral
condition.context: read-out: Cp(T)
property.name: concentration at 5 h (µM)

[[record]]
cpd_smiles = "CC(C)CN1CCN(c2nc3c(c(Nc4ccc(C(F)(F)F)cc4)n2)CCN(c2ncccc2C(F)(F)F)CC3)CC1"
scale_unit = "µM"
result_value = 1.05


====

assay.summary: Tmax in fasted Sprague-Dawley rat at 2 mg/kg, po
Type: ADME, organism-based
Design: dose 2 mg/kg, route oral
condition.context: in vivo
property.name: Tmax (h)

[[record]]
cpd_smiles = "CC(C)CN1CCN(c2nc3c(c(Nc4ccc(C(F)(F)F)cc4)n2)CCN(c2ncccc2C(F)(F)F)CC3)CC1"
result_value = 2.3


====

Measured IC50 of individual entries
assayed.system: Transient receptor potential cation channel subfamily V member 1 (Homo sapiens, UniProt Q8NER1)
Sequence (Q8NER1 whole entry): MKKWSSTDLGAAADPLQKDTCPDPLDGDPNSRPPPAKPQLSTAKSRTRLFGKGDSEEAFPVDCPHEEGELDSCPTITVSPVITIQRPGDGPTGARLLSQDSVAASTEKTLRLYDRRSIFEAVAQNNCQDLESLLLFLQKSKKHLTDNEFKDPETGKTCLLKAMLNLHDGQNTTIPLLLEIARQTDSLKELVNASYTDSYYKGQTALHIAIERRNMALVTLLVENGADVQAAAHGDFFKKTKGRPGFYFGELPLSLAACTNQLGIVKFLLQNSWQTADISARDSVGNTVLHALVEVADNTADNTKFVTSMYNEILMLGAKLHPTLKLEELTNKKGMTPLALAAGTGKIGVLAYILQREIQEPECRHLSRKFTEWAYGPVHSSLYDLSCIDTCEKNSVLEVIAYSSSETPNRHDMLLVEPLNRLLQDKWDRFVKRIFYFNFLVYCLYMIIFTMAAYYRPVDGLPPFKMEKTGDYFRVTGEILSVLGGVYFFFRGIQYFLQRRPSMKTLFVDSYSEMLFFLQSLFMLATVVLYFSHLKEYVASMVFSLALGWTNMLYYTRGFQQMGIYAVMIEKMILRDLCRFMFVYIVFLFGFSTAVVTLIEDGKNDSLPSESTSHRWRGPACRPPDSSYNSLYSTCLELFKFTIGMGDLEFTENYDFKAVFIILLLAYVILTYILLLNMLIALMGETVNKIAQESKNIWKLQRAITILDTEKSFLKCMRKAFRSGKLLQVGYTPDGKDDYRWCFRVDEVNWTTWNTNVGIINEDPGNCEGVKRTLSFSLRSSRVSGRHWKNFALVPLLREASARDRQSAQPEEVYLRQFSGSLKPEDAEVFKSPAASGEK
assay.summary: Antagonist activity at human TRPV1 expressed in HEK293 cells assessed as inhibition of capsaicin-induced intracellular Ca2+ level by FLIPR assay
Type: functional, cell-based
property.name: IC50 (nM)

[[record]]
compound = "CC(C)CN1CCN(c2nc3c(c(Nc4ccc(C(F)(F)F)cc4)n2)CCN(c2ncccc2C(F)(F)F)CC3)CC1"
result_value = 11

[[record]]
compound = "COCCN1CCN(c2nc3c(c(Nc4ccc(C(F)(F)F)cc4)n2)CCN(c2ncccc2C(F)(F)F)CC3)CC1"
result_value = 65

[[record]]
compound = "CN1CCCC(Nc2nc3c(c(Nc4ccc(C(F)(F)F)cc4)n2)CCN(c2ncccc2C(F)(F)F)CC3)C1 (configuration not stated)"
result_value = 3080

[[record]]
compound = "FC(F)(F)c1ccc(Nc2nc(NCC3CCCCN3)nc3c2CCN(c2ncccc2C(F)(F)F)CC3)cc1 (configuration not stated)"
result_value = 100

[[record]]
compound = "CN(C)[C@@H]1CCN(c2nc3c(c(Nc4ccc(C(F)(F)F)cc4)n2)CCN(c2ncccc2C(F)(F)F)CC3)C1"
result_value = 243

[[record]]
compound = "CN(C)CCN1CCN(c2nc3c(c(Nc4ccc(C(F)(F)F)cc4)n2)CCN(c2ncccc2C(F)(F)F)CC3)CC1"
result_value = 2000

[[record]]
compound = "CCC(CC)N1CCN(c2nc3c(c(Nc4ccc(C(F)(F)F)cc4)n2)CCN(c2ncccc2C(F)(F)F)CC3)CC1"
result_value = 41


====

assayed.system: Transient receptor potential cation channel subfamily V member 1 (Rattus norvegicus, UniProt O35433)
Sequence (O35433 whole entry): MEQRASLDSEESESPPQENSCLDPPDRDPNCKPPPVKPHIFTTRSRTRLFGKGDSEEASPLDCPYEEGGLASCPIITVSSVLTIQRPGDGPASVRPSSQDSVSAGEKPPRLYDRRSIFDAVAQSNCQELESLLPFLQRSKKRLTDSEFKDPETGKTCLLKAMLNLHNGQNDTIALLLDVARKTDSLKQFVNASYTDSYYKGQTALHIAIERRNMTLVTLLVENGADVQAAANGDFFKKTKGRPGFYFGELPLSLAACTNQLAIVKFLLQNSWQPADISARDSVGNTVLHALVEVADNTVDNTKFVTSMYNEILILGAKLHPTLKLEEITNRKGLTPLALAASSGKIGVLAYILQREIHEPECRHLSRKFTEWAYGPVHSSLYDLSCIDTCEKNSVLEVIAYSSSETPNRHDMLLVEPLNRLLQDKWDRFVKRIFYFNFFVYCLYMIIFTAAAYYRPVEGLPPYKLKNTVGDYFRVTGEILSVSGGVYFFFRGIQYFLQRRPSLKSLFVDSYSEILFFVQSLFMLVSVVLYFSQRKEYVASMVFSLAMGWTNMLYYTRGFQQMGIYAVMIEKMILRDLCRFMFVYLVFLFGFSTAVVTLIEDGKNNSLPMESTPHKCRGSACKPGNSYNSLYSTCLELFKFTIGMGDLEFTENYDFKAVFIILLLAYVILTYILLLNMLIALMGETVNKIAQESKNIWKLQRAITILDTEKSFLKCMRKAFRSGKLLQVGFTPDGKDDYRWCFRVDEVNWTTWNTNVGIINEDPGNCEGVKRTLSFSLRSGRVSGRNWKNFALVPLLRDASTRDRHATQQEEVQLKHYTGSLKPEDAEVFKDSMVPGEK
assay.summary: Antagonist activity at rat TRPV1 expressed in HEK293 cells assessed as inhibition of capsaicin-induced intracellular Ca2+ level by FLIPR assay
Type: functional, cell-based
Measured IC50 of individual entries
property.name: IC50 (nM)

[[record]]
molecule = "FC(F)(F)c1ccc(Nc2nc(N3CCN(C4CCCC4)CC3)nc3c2CCN(c2ncccc2C(F)(F)F)CC3)cc1"
property_name = "IC50"
limit_sign = "="
result_value = 123

[[record]]
molecule = "FC(F)(F)c1ccc(Nc2nc(N3CCNCC3)nc3c2CCN(c2ncccc2C(F)(F)F)CC3)cc1"
property_name = "IC50"
limit_sign = ">"
result_value = 5000

[[record]]
molecule = "CN1CCCCC1CNc1nc2c(c(Nc3ccc(C(F)(F)F)cc3)n1)CCN(c1ncccc1C(F)(F)F)CC2 (stereo unspecified)"
property_name = "IC50"
limit_sign = "="
result_value = 2280

[[record]]
molecule = "FC(F)(F)c1ccc(Nc2nc(NC3CCCNC3)nc3c2CCN(c2ncccc2C(F)(F)F)CC3)cc1 (stereo unspecified)"
property_name = "IC50"
limit_sign = ">"
result_value = 5000

[[record]]
molecule = "CC(=O)N(C)C1CCN(c2nc3c(c(Nc4ccc(C(F)(F)F)cc4)n2)CCN(c2ncccc2C(F)(F)F)CC3)C1 (stereo unspecified)"
property_name = "IC50"
limit_sign = "="
result_value = 460

[[record]]
molecule = "OCCN1CCN(c2nc3c(c(Nc4ccc(C(F)(F)F)cc4)n2)CCN(c2ncccc2C(F)(F)F)CC3)CC1"
property_name = "IC50"
limit_sign = "="
result_value = 1160


Measured values drawn from ChEMBL document CHEMBL1629484 for this set.
